- studyTarget: T1, human GREM1 (hGREM1-His; SEQ ID NO: 595) (human, UniProt O60565 25-184)
- T1 construct: also called biotin-hGREM1-His; recombinant human GREM1 protein
- T1 sequence: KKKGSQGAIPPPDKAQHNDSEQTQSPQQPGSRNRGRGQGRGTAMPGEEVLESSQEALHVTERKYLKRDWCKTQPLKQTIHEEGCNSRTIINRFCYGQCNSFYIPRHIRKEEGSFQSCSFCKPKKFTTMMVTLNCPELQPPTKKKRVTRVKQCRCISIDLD
- measurementProtocol: competition ELISA, biotin-hGREM1-His (100 pM) binding to coated hBMP4
# reported IC50; entries follow

[[record]]
binder = "H4H6232P (antibody, human IgG4, V domains shown, H4H prefix = human IgG4 Fc) VH: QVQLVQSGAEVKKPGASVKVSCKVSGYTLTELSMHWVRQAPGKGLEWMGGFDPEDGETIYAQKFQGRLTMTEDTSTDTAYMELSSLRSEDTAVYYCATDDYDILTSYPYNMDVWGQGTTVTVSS VL: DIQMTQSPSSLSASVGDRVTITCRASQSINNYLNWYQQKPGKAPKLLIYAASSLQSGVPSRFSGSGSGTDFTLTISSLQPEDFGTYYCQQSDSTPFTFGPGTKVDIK"
endpointresult = "< 0.025 nM"


Give recorded IC50. H4H6260P (antibody, human IgG4, V domains shown, H4H prefix = human IgG4 Fc) VH: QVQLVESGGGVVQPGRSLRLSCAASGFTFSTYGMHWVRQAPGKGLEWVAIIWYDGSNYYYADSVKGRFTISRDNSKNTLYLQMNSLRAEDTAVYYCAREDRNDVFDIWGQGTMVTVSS VL: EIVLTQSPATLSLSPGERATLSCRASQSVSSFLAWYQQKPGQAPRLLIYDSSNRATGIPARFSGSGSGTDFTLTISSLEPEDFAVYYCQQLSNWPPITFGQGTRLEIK < 0.025 nM

Give recorded IC50. H4H6243P (antibody, human IgG4, V domains shown, H4H prefix = human IgG4 Fc) VH: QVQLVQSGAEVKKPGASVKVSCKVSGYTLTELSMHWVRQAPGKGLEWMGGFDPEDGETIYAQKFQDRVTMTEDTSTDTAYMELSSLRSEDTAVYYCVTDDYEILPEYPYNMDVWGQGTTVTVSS VL: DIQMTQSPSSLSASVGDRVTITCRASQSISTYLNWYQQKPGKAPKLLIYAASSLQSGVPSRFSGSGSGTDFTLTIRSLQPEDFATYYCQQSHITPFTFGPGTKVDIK < 0.025 nM
